Where do the numbers come from? From paper PMC4336329.

# targetOrSystem: human ether-à-go-go-related gene (hERG) potassium channel (human);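 also: peak tail current of the secondary pulse compared with the same well before compound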
# Sequence (Q12809 whole entry, looked up): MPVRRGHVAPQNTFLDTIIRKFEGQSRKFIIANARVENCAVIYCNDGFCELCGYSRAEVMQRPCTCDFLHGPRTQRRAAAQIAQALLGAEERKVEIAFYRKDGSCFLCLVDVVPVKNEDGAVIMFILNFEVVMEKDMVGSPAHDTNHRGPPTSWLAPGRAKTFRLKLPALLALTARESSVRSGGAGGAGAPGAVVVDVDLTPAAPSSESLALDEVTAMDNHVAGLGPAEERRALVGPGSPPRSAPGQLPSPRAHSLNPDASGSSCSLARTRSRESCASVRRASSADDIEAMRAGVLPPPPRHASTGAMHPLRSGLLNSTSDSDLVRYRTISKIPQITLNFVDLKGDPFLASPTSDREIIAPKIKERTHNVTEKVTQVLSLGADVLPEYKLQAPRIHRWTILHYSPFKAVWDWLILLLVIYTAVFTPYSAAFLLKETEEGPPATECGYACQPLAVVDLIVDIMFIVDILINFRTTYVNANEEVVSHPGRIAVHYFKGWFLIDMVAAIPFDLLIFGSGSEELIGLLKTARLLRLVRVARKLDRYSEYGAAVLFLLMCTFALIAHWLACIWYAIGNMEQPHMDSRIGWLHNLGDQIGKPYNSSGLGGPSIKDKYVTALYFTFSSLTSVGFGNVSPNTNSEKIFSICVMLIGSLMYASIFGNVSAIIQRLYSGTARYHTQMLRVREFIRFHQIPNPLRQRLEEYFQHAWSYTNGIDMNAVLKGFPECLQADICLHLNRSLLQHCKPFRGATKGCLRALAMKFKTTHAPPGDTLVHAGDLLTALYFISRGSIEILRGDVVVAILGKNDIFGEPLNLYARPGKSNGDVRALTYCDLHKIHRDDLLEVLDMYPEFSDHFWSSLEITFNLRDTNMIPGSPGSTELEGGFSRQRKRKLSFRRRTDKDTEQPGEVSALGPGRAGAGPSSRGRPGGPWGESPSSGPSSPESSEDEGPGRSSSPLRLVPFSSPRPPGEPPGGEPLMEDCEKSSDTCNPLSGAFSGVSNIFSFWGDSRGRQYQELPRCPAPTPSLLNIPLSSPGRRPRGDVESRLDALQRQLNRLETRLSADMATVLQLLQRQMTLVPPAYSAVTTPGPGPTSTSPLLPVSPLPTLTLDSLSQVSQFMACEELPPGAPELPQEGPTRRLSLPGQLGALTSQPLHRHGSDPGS
# assayComment: primary screen, population patch clamp on CHO cells stably expressing hERG; higher = less effect of the substance
Out of some 310,000 compounds screened, about 14,000 (4.5%) showed an effect of 50% or more. Effects have a minus sign here. Only a selection was taken, and strong results are over-represented in it overall.
Would you mind telling me the reported hERG current change (%, negative = inhibition) at 10uM of each entry?
Response body: numeric value in %, unit text excluded.

Entry O=C(O)/C=C/C(=O)NC1CC1 — recorded hERG current change (%, negative = inhibition) at 10uM = 41.9

Record summary for OC1(c2ccc(F)cc2)CN(c2ccccc2)C2=[N+]1CCS2.[Br-] (stereo not shown) : reported hERG current change (%, negative = inhibition) at 10uM = -13.9

compound Cc1ccc(C2(O)CN(c3ccccc3)C3=[N+]2CCS3)cc1.[Br-] (stereo not shown) , hERG current change (%, negative = inhibition) at 10uM observed: -32.6

Just so you know, measured hERG current change (%, negative = inhibition) at 10uM for N#CC1=C(Nc2ccccc2)SC=C(c2ccc(F)cc2)N=C1N1CCOCC1 came out at -10.8

For COc1ccc(C(=O)Nc2ccnn2C2CCN(C3CCC3)CC2)cc1 the compound record lists hERG current change (%, negative = inhibition) at 10uM as 20.7

// recorded hERG current change (%, negative = inhibition) at 10uM for OC1(c2ccccc2)CN(c2ccccc2)C2=[N+]1CCS2.[Br-] (stereo not shown) : -28.1

Sure, the documented hERG current change (%, negative = inhibition) at 10uM for Cc1ccccc1NC(=S)N/N=C1\CC(C)(C)Oc2ccc(O)cc21 is 42.1

Consider CC(=O)N1CCC2(CC1)C/C(=N\NC(=S)Nc1ccc(C)cc1)c1cc(O)ccc1O2 . Its measured hERG current change (%, negative = inhibition) at 10uM is -70.8

hERG current change (%, negative = inhibition) at 10uM reported for this compound Cc1ccc(OCC(=O)N2CCN(C(=O)c3cccnc3)CC2)cc1 : -4.29

Note to self: hERG current change (%, negative = inhibition) at 10uM recorded for N#CC1=C(Nc2ccccc2)SC=C(c2ccc(Br)cc2)N=C1N1CCOCC1 was -64.7

// C[n+]1c(-c2ccccc2)cc(-c2ccc(O)cc2)cc1-c1ccccc1.[O-][Cl+3]([O-])([O-])[O-] : hERG current change (%, negative = inhibition) at 10uM value = -61.4

The compound identified as OC1(c2ccc(Cl)cc2)CN(c2ccccc2)C2=[N+]1CCS2.[Br-] (stereo not shown) registered its hERG current change (%, negative = inhibition) at 10uM at -50.4

Short answer for COc1cc(OC)c(NS(=O)(=O)c2cn(C)cn2)cc1Cl : hERG current change (%, negative = inhibition) at 10uM was 5.67

Reported hERG current change (%, negative = inhibition) at 10uM ( COc1cc(CNCCO)ccc1OCCc1ccccc1 ) = 6.61

# hERG current change (%, negative = inhibition) at 10uM (compound: NC(=O)c1ccc(NC(=O)c2cc(S(=O)(=O)N3CCCCC3)ccc2N2CCOCC2)cc1 ) is -13.9

Lab book: hERG current change (%, negative = inhibition) at 10uM of CC(C)(C)n1ncc2c(=O)n(CC(=O)c3ccccc3)cnc21 noted as -10.4

Record summary for Cc1cc(C)n2c(SCC(=O)NC3CCCCC3C)nnc2n1 (stereo not shown) : reported hERG current change (%, negative = inhibition) at 10uM = 29.5

Given item O=C(Nc1ccc(OC(F)F)cc1)c1cc(S(=O)(=O)N2CCOCC2)ccc1F , the value recorded as its hERG current change (%, negative = inhibition) at 10uM is -31.3

Cc1cccc(NC(=S)N/N=C2\CC(C)(C)Oc3ccc(O)cc32)c1 yielded hERG current change (%, negative = inhibition) at 10uM of 8.34

GET /value?item= CNC(=O)c1ccc(NC(=O)c2cc(S(=O)(=O)N3CCOCC3)ccc2N2CCCC2)cc1 &field=hERG current change (%, negative = inhibition) at 10uM returns 7.71

The value of hERG current change (%, negative = inhibition) at 10uM measured for the compound Br.C=CCN1C(c2ccc(Br)cc2)=CS/C1=C(/C#N)c1nnc(N2CCOCC2)n1-c1ccccc1 turned out to be -13.4

hERG current change (%, negative = inhibition) at 10uM reported for this compound Cc1ccc(C(=O)c2ccccc2C(=O)O)s1 : -1.28

# compound NC1=NC[C@H](Cc2ccccc2)N1CCCCC1CCCCC1 ; its hERG current change (%, negative = inhibition) at 10uM = -25.9

The compound identified as COC(=O)C(=O)/C=C(\O)c1ccc(C)cc1 registered its hERG current change (%, negative = inhibition) at 10uM at -2.4

Lab book: hERG current change (%, negative = inhibition) at 10uM of CC(=O)N1CCC2(CC1)C/C(=N\NC(=S)Nc1ccccc1C)c1cc(O)ccc1O2 noted as -61.1

According to the records, this compound Cc1ccc(NC(=S)N/N=C2\CC(C)(C)Oc3ccc(O)cc32)cc1 displays hERG current change (%, negative = inhibition) at 10uM of 12

// hERG current change (%, negative = inhibition) at 10uM value for c1ccc(Nc2nc(N3CCOCC3)nc(N3CCOCC3)n2)cc1 : -7.35

Kindly note the recorded hERG current change (%, negative = inhibition) at 10uM for O=C(COc1ccccc1)N1CCCCCCC1 , which is 3.25

The reported hERG current change (%, negative = inhibition) at 10uM of the compound Clc1ccccc1-c1nnc2sc(-c3ccco3)nn12 was -21.8

According to the records, this compound COc1ccccc1NC(=S)N/N=C1\CC(C)(C)Oc2ccc(O)cc21 displays hERG current change (%, negative = inhibition) at 10uM of 0.968

Record O=C(COc1ccc2ccccc2c1)N1CCN(C(=O)c2cccnc2)CC1 , field hERG current change (%, negative = inhibition) at 10uM: -25

# hERG current change (%, negative = inhibition) at 10uM (compound: CC(=O)Nc1ccc(C(=O)N2CCN(S(=O)(=O)c3ccc4c(c3)OCCCO4)CC2)cc1 ) is 5.45

Data point: CCN1CCN(c2ccc(NC(=O)c3cc(S(=O)(=O)N4CCCC4)ccc3Cl)cc2)CC1 ; hERG current change (%, negative = inhibition) at 10uM = -27.7

# hERG current change (%, negative = inhibition) at 10uM (compound: O=C(COc1ccccc1)N1CCCC1 ) is 15.6

###

# targetOrSystem: human ether-à-go-go-related gene (hERG) potassium channel (human);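 also: peak tail current of the secondary pulse compared with the same well before compound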
# assayComment: primary screen, population patch clamp on CHO cells stably expressing hERG; higher = less effect of the substance
Screen size: about 310,000 compounds; about 14,000 (4.5%) showed an effect of 50% or more. The effect is printed as a negative number. Only a selection was taken, and strong results are over-represented in it overall.
Cut-off -40% on hERG current change (%, negative = inhibition) at 10uM, inclusive. At or above means 1 (yes); below means 0 (no).

Prompt line: Would you say O=C(c1ccco1)N1CCN(c2ccc(F)cc2)CC1 shows hERG current change (%, negative = inhibition) at 10uM at minimum -40%?
Response line: 1 (yes)

Prompt line: Confirm if hERG current change (%, negative = inhibition) at 10uM reported for the molecule O=C(Nc1ccc(F)cc1)N1CCN(c2ccc3nnc(-c4ccc(F)cc4)n3n2)CC1 is -40% or above.
Response line: 0 (no)

Prompt line: Has CC(C)O.CCCC1(CCC)NC(=O)N(CC(=O)N2CCN(C(=O)c3ccco3)CC2)C1=O a recorded hERG current change (%, negative = inhibition) at 10uM greater than or equal to -40%?
Response line: 1 (yes)

Prompt line: Given Cc1ccc(C(O)CN2C3=NCCCN3c3ccccc32)cc1.Cl (stereo not shown) , state whether its hERG current change (%, negative = inhibition) at 10uM is at least -40%.
Response line: 0 (no)

Prompt line: State whether the measured hERG current change (%, negative = inhibition) at 10uM reaches -40%, counting equality as reaching it, for Cl.OC(CN1C2=NCCN2c2ccccc21)c1ccccc1 (stereo not shown)
Response line: 0 (no)

Prompt line: Identify whether the reported hERG current change (%, negative = inhibition) at 10uM of the following molecule is -40% or greater: O=C(c1ccc(Br)o1)N1CCN(c2ccc3nnc(-c4ccc(F)cc4)n3n2)CC1
Response line: 0 (no)

Prompt line: Item c1ccc(-c2nnc3ccc(N4CCCC4)nn23)cc1 with hERG current change (%, negative = inhibition) at 10uM of -40% or above?
Response line: 1 (yes)

Prompt line: For this molecule, is measured hERG current change (%, negative = inhibition) at 10uM -40% or higher? Cc1ccc(C(=O)CCC(=O)N2CCN(C(=O)c3ccco3)CC2)cc1
Response line: 0 (no)

Prompt line: Quick check, hERG current change (%, negative = inhibition) at 10uM >= -40%? O=C(NCCS(=O)(=O)N1CCN(c2ccccc2F)CC1)c1ccc(Br)o1
Response line: 1 (yes)

Prompt line: I'd appreciate it if you could say whether O=C(CCC(=O)N1CCN(C(=O)c2ccco2)CC1)c1ccc(F)cc1 has hERG current change (%, negative = inhibition) at 10uM at least equal to -40%.
Response line: 0 (no)

Prompt line: Does O=C(CCC(=O)N1CCOCC1)c1ccc(F)cc1 have a reported hERG current change (%, negative = inhibition) at 10uM of at least -40%?
Response line: 1 (yes)

Prompt line: Textbook exercise: given the entry COc1ccccc1NC(=O)N1CCN(c2ccc3nnc(-c4ccc(F)cc4)n3n2)CC1 , state whether its hERG current change (%, negative = inhibition) at 10uM is greater than or equal to -40%.
Response line: 0 (no)

Prompt line: Is hERG current change (%, negative = inhibition) at 10uM at least -40%? Consider CN(Cc1ccc(OCC(O)CN(C)Cc2ccccc2)cc1)Cc1nccn1C (stereo not shown)
Response line: 1 (yes)

Prompt line: Given CN(Cc1ccccc1)CC(O)COc1ccc(CNCc2nccn2C)cc1 (stereo not shown) , state whether its hERG current change (%, negative = inhibition) at 10uM is at least -40%.
Response line: 0 (no)

Prompt line: Reported hERG current change (%, negative = inhibition) at 10uM reaches at least -40% for O=C(Nc1ccccc1C(F)(F)F)N1CCN(c2ccccn2)CC1 ?
Response line: 1 (yes)

Prompt line: Is it the case that CCCCC1(c2ccc(F)cc2)NC(=O)N(CC(=O)N2CCN(C(=O)c3ccco3)CC2)C1=O (stereo not shown) has hERG current change (%, negative = inhibition) at 10uM reaching or exceeding -40%?
Response line: 0 (no)
